molecular target: F508delCFTR (Homo sapiens, UniProt P13569, DEL508-508); construct: expressed in transfected cells; host or cells: CFBE41o- human lung-derived epithelial cells (CFBE4lo-F508delCFTR-HRP), doxycycline-inducible; assay: Cell Surface Expression-Horse Radish Peroxidase (CSE-HRP) Assay; type: cell-based; details: with co-corrector (2 μM of 3-[(2R,4R)-4-({[1-(2,2-difluoro-1,3-benzodioxol-5-yl)cyclopropyl]carbonyl}amino)-7-methoxy-3,4-dihydro-2H-chromen-2-yl]benzoic acid); maximum at any tested concentration, normalized to on-plate positive control;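 for Maximum % activity (with co-corrector): co-corrector and positive control are both the same reference corrector at 2 µM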
Sequence (P13569 with tags, fused parts or gaps DEL508-508): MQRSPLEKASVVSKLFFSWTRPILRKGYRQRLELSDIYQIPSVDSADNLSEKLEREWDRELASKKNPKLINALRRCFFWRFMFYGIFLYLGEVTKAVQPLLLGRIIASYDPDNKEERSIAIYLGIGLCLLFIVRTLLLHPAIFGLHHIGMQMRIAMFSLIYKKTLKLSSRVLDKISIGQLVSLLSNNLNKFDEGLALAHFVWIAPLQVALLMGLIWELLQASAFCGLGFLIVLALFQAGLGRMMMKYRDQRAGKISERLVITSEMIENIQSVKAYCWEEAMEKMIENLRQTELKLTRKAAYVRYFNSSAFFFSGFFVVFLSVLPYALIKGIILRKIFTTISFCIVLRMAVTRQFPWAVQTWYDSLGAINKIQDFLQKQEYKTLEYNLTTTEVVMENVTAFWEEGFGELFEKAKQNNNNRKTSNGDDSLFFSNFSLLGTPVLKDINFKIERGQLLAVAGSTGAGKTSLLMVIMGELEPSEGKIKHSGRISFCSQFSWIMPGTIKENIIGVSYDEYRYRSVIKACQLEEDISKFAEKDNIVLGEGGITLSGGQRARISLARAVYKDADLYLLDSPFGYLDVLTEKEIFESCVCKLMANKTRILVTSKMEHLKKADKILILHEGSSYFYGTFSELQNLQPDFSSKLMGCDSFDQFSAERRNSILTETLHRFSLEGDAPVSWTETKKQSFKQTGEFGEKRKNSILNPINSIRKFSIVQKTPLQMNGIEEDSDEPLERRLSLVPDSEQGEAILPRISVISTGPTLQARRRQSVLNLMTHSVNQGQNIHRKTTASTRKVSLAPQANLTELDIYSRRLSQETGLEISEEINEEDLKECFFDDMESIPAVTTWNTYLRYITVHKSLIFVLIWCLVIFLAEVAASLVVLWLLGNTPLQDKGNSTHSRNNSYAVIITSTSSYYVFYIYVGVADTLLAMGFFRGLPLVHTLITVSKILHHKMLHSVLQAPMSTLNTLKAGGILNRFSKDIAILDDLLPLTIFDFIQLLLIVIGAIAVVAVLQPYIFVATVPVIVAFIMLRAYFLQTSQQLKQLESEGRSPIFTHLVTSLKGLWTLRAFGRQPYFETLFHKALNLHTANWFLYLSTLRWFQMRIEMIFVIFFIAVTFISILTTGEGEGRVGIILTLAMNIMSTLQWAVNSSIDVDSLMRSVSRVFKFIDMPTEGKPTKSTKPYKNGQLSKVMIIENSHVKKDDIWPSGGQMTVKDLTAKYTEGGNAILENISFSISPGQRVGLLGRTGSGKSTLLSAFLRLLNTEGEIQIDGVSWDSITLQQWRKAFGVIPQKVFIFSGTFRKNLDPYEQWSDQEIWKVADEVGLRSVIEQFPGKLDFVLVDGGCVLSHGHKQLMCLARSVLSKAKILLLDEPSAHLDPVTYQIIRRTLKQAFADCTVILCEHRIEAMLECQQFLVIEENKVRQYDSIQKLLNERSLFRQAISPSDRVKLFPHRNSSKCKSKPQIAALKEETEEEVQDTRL

molecule	Maximum % activity (with co-corrector)
COc1ncc(C(F)(F)F)cc1CN[C@H]1[C@H](C(C)(C)C)[C@@H](C(=O)O)N(C(=O)OC(C)C)[C@H]1c1ccccc1	+++ (≥350)
COc1ccc(C(C)(C)C)cc1CN[C@H]1[C@H](C(C)(C)C)[C@@H](C(=O)O)N(C(=O)C2Cc3ccccc3CO2)[C@H]1c1cccnc1N(C)C (single isomer, unassigned) [II-481]	+++ (≥350)
COc1ccc(C(C)(C)C)cc1CN[C@H]1[C@H](C(C)(C)C)[C@@H](C(=O)O)N(C(=O)[C@@H]2CCC[C@@H](OC)C2)[C@H]1c1cccnc1N(C)C (relative stereo)	+++ (≥350)

====

Some compounds, each annotated with its measured Emax.
target: F508delCFTR (Homo sapiens, UniProt P13569, DEL508-508); construct: expressed in transfected cells; host or cells: CFBE41o- human lung-derived epithelial cells (CFBE4lo-F508delCFTR-HRP), doxycycline-inducible; assay: Cell Surface Expression-Horse Radish Peroxidase (CSE-HRP) Assay; type: cell-based; settings: CSE-HRP; without co-corrector; maximum at any tested concentration, normalized to on-plate positive control; read-out: Maximum % activity (without co-corrector);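 for Maximum % activity (without co-corrector): percent of the 2 µM on-plate positive control corrector response above DMSO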

Below: 2 compounds and their reported Emax.
compound	test result
COc1ccc(C2(C)CCC2)cc1CN[C@H]1[C@H](C(C)(C)C)[C@@H](C(=O)O)N(C(=O)[C@@H]2CCCCO2)[C@H]1c1ccccc1C(C)C [Example I-304]	> 200%
COc1ccc(C(C)(C)C)cc1CN[C@H]1[C@H](C(C)(C)C)[C@@H](C(=O)O)N(C(=O)c2cccc3c2OCC3)[C@H]1c1ccccc1 [II-222]	100 to 200%

Looking up COc1cccc(Cl)c1CN[C@@H]1[C@@H](C(C)(C)C)[C@H](C(=O)O)N(C(=O)C2CCCCC2)[C@@H]1c1ccccc1 (racemic) [II-10] , I see its Emax listed as 100 to 200%

Looking up COc1ccc(C(C)(C)C)cc1CN[C@H]1[C@H](C(C)(C)C)[C@@H](C(=O)O)N(C(=O)c2cc(C)nc(C)c2)[C@H]1c1ccccc1 [II-197] , I see its Emax listed as < 100%

Looking up CC(C)(C)c1cc(CN[C@H]2[C@H](C(C)(C)C)[C@@H](C(=O)O)N(C(=O)C3CCCCC3)[C@H]2c2ccccc2)cc(C(C)(C)C)c1 [II-133] , I see its Emax listed as < 100%

Looking up COc1ncc(C(F)(F)F)cc1CN[C@@H]1[C@@H](C(C)(C)C)[C@H](C(=O)O)N(C(=O)C2CCCCC2)[C@@H]1c1cccnc1N(C)C (racemic) [II-52] , I see its Emax listed as 100 to 200%

Looking up CC(C)OC(=O)N1[C@H](C(=O)O)[C@@H](C(C)(C)C)[C@H](NCC2CCCN(c3ccc(C(F)(F)F)cc3)C2)[C@@H]1c1ccccc1 (stereo partly drawn) [Example I-268] , I see its Emax listed as < 100%

Looking up COc1ccc(-c2cccs2)cc1CN[C@H]1[C@H](C(C)(C)C)[C@@H](C(=O)O)N(C(=O)C2CCCCC2)[C@H]1c1ccccc1 [II-275] , I see its Emax listed as > 200%

Looking up COc1ccc(-c2ccc(C#N)cc2)cc1CN[C@H]1[C@H](C(C)(C)C)[C@@H](C(=O)O)N(C(=O)C2CCCCC2)[C@H]1c1ccccc1 [II-289] , I see its Emax listed as < 100%

Looking up Cc1cc(C(F)(F)F)cc(N[C@H]2[C@H](C(C)(C)C)[C@@H](C(=O)O)N(C(=O)C3CCCCC3)[C@H]2c2ccccn2)n1 (racemic) [II-53] , I see its Emax listed as < 100%

Looking up COc1ccc(C(F)(F)F)cc1CN[C@H]1[C@H](C(C)(C)C)[C@@H](C(=O)O)N(C(=O)[C@H](OC)c2ccccc2)[C@H]1c1cccnc1N(C)C (racemic) [II-33] , I see its Emax listed as 100 to 200%
